Measured values drawn from patent US12673050B2 for this set.

Overview of reported pIC50 across a group of molecules:
- Assayed Target: CYP 1A2 (Homo sapiens, UniProt P05177)
- Sequence (P05177 1-516): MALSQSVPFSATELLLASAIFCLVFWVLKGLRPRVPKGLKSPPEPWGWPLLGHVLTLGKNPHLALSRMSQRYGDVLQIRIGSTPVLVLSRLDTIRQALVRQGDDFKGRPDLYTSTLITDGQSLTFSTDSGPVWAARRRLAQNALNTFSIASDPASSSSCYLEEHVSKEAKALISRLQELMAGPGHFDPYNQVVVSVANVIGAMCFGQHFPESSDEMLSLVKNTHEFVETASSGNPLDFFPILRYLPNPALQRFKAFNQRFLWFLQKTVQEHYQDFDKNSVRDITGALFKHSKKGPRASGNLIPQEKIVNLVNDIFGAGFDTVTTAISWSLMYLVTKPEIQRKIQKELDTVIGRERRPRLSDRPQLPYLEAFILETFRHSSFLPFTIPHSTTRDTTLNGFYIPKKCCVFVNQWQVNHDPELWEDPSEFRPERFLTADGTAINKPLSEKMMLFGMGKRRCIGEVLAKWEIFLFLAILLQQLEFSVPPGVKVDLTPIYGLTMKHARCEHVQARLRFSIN
pIC50: −log10 of the molar value.

>  <Given Smiles>
O=C(O)[C@@H]1CCCN(S(=O)(=O)c2ccccc2C(F)(F)F)C1

>  <Observed Property>
pIC50

>  <Result>
< 4.30

$$$$

Continue with the next molecule.
Need pIC50, item "O=C(O)[C@H]1CCCN(S(=O)(=O)c2ccccc2C(F)(F)F)C1" < 4.30
